# Tested Target: Replicase polyprotein 1ab (Severe acute respiratory syndrome coronavirus 2, UniProt P0DTD1)
# Assay Notes: Inhibition of TAP-tagged SARS-CoV-2 papain-like protease nsp123
Parameter: IC50 (nM)

1. Nc1nc2nc[nH]c2c(=S)[nH]1 ... 500

* * *

# Tested Target: Replicase polyprotein 1ab (Severe acute respiratory syndrome coronavirus 2, UniProt P0DTD1)
# Assay Notes: Inhibition of 6xHis-tagged SARS-CoV-2 papain-like protease expressed in Escherichia coli BL21 (DE3) using ISG15-FITC as substrate incubated for 30 mins by fluorescence polarization assay
pIC50: −log10 of the molar value.
Parameter: pIC50

1) Oc1c(Cl)cc(Cl)c2cccnc12 ... 5.14

* * *

Entries and their pIC50
# Tested Target: Replicase polyprotein 1ab (Severe acute respiratory syndrome coronavirus 2, UniProt P0DTD1)
# Assay Notes: Inhibition of recombinant SARS-CoV-2 papain-like protease using Z-Arg-Leu-Arg-Gly-Gly-AMC as substrate by enzymatic assay
pIC50: −log10 of the molar value.
Parameter: pIC50

1. CN(Cc1cn(C2C3=C(OC2(C)C)c2ccccc2C(=O)C3=O)nn1)C1=CC(=O)c2ccccc2C1=O (configuration not stated) ... 5.66
2. CN(Cc1cn(C2C3=C(OC2(C)C)c2ccccc2C(=O)C3=O)nn1)C1=C(Br)C(=O)c2ccccc2C1=O (configuration not stated) ... 5.51

* * *

# Tested Target: Replicase polyprotein 1ab (Severe acute respiratory syndrome coronavirus 2, UniProt P0DTD1)
# Assay Notes: Inhibition of SARS-CoV-2 papain-like protease using RLRGG-AMC as substrate
pIC50: −log10 of the molar value.
Parameter: pIC50

1) Nc1ccc2cc3ccc(N)cc3nc2c1 ... 5.78

* * *

# Tested Target: Replicase polyprotein 1ab (Severe acute respiratory syndrome coronavirus 2)
# Assay Notes: Binding affinity to biotin-tagged SARS-CoV-2 papain-like protease expressed in Escherichia coli BL21 (DE3) assessed as dissociation constant incubated for 3 mins by BLI assay
Parameter: Kd (µM)

1) Oc1c(Cl)cc(Cl)c2cccnc12 [AS-229] ... 4.6

* * *

# Tested Target: Replicase polyprotein 1ab (Severe acute respiratory syndrome coronavirus 2)
# Assay Notes: Inhibition of recombinant SARS-CoV-2 main protease using ATLQAIAS as substrate preincubated for 15 mins by enzymatic assay
pIC50: −log10 of the molar value.
Parameter: pIC50

1) CN(Cc1cn(C2C3=C(OC2(C)C)c2ccccc2C(=O)C3=O)nn1)C1=C(Br)C(=O)c2ccccc2C1=O (stereo unspecified) ... 4.18

* * *

# Tested Target: Replicase polyprotein 1ab (Severe acute respiratory syndrome coronavirus 2)
# Assay Notes: Inhibition of SARS-CoV-2 papain-like protease expressed in Escherichia coli BL21 (DE3) using Z-LRGG-AMC/Z-RLRGG-AMC as substrate preincubated for 30 mins by enzymatic assay
Parameter: IC50

1) C[C@@H](NC(=O)c1ccccc1CCC(=O)NNC(=O)/C(C#N)=C/C1CC1)c1cccc2ccccc12 ... > 200 µM

* * *

# Tested Target: Replicase polyprotein 1ab (Severe acute respiratory syndrome coronavirus 2, UniProt P0DTD1)
# Assay Notes: Inhibition of SARS-CoV-2 papain-like protease
pIC50: −log10 of the molar value.
Parameter: pIC50

1) O=C1c2ccccc2C(=O)c2oc(-c3ccccc3)nc21 ... 6.25

* * *

# Tested Target: Replicase polyprotein 1ab (Severe acute respiratory syndrome coronavirus 2, UniProt P0DTD1)
# Assay Notes: Inhibition of N-terminal 3xFlag-His6-tagged SARS-CoV-2 papain-like protease nsp3 (1564 to 1878 residues) expressed in baculovirus infected Sf9 insect cells using Pro3 as substrate by fluorescence based assay
Parameter: IC50

1) O=C1c2ccccc2-c2nc3nnnn3nc21 ... 260 nM
2) Cc1ccc(NC2=CC(=O)c3sc(C)nc3C2=O)cc1 ... 390 nM
